All figures here come from patent EP0402717A1.

tested on: NiIaparvata lugens Stal; experiment: Test on plant hoppers (spray on rice plants), brown rice planthopper; format: in vivo; settings: 48 h, read-out: Mortality (%) Brown rice planthopper
Hi there, I'd appreciate the recorded mortality at 500 ppm for every entry that follows.
Numeric answer only, unit % assumed.

Incoming: Give mortality at 500 ppm (NiIaparvata lugens Stal) of the following compound: CCCCCCCCCCCCN1CC([N+](=O)[O-])=C(NC)N(Cc2ccc(Cl)nc2)C1 [Compound 41]
Outgoing: 100

Incoming: Quick check: mortality at 500 ppm on NiIaparvata lugens Stal, item CNC1=C([N+](=O)[O-])CN(C)CN1Cc1ccc(Cl)nc1 [Compound 8] ?
Outgoing: 100

Incoming: What is its mortality at 500 ppm for NiIaparvata lugens Stal? Entry: O=c1[nH]c(=O)n2c(c1[N+](=O)[O-])NCC2 [Compound C-2]
Outgoing: 0

Incoming: Tell me reported mortality at 500 ppm for CN1CCN2C(=O)CCC([N+](=O)[O-])=C12 [Compound C-1] , tested with NiIaparvata lugens Stal.
Outgoing: 0
